Data credit: patent US20200040103A1

- ASSAYED_SYSTEM: recombinant human KLK5 (human) (UniProt Q9Y337)
- Sequence (Q9Y337 67-293): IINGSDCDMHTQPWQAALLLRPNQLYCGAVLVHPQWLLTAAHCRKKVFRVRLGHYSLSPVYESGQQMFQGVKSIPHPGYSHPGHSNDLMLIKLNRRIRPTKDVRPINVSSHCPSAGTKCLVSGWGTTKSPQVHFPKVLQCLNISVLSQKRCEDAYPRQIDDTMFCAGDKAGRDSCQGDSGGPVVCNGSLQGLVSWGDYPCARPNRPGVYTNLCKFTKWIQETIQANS
- ASSAY_PROCEDURE: pro-KLK7 coupled assay, 5 nM KLK5
pIC50: −log10 of the molar value.
# Lookup of reported pIC50 keyed by entry

BINDER | pIC50
10C8 (antibody, V domains shown) VH: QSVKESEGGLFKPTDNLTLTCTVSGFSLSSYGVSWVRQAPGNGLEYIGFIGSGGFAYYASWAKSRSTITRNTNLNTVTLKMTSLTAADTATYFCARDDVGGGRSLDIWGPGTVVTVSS VL: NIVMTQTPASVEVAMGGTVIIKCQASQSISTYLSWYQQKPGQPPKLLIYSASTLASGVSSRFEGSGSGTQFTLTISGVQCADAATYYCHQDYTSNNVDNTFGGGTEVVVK | 8.94
2-3F4 (antibody, V domains shown) VH: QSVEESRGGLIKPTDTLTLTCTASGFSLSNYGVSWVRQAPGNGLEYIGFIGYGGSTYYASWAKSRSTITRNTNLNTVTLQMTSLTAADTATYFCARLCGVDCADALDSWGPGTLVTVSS VL: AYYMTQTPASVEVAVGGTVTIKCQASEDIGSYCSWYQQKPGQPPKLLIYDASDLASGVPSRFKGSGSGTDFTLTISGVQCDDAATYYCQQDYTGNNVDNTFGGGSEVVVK | 8.96
3-3F5 (antibody, V domains shown) VH: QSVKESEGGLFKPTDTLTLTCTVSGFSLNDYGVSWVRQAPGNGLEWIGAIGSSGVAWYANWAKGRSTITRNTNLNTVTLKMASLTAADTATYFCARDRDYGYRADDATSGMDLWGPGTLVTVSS VL: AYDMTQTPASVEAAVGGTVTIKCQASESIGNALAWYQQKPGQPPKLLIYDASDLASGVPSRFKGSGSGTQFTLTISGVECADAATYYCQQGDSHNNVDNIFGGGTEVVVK | 8.82
8B7 (antibody, V domains shown) VH: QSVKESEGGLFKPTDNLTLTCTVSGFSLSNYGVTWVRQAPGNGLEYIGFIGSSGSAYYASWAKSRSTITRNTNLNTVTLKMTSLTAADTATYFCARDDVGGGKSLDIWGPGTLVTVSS VL: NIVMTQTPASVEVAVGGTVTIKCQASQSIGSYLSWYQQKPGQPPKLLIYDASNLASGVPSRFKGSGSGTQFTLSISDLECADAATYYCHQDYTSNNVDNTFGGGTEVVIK | 9.04
10H3 (antibody, V domains shown) VH: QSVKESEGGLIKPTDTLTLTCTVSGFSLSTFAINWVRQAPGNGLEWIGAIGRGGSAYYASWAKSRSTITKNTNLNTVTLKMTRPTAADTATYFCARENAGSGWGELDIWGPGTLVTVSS VL: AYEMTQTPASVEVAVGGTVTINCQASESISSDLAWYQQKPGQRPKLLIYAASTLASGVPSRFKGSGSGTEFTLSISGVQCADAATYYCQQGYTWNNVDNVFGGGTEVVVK | 8.93
10C5 (antibody, V domains shown) VH: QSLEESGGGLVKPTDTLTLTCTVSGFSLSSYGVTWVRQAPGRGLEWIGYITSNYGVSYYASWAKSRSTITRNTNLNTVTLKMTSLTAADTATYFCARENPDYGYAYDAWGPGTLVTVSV VL: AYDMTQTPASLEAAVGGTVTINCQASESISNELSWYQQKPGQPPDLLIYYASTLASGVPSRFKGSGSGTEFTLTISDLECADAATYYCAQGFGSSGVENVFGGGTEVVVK | 9.24
9H5 (antibody, V domains shown) VH: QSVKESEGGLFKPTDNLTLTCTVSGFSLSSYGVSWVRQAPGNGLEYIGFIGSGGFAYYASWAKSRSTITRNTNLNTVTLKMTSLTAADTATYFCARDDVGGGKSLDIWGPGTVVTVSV VL: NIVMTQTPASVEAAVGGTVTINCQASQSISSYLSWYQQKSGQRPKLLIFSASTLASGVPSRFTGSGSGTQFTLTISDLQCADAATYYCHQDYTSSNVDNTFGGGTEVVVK | 9.06
